Procedure Details: Pharmacokinetic study following a single s.c. administration of 1-MT
Assay type: in vivo, domestic pigs (Sus scrofa domestica)
Test Conditions: German Landrace, pig, plasma, sc, 1 g
Property Name: Tmax (h)
A number alone suffices; assume h.

Q: Please give the measured Tmax for this molecule: Cn1cc(C[C@H](N)C(=O)O)c2ccccc21 [1-MT, 1-methyl-L-tryptophan]
A: 12

* * *

Procedure Details: Pharmacokinetic study following a single s.c. administration of 1-MT
Type: in vivo, domestic pigs (Sus scrofa domestica)
Test Conditions: German Landrace, pig, plasma, sc, 1 g
Property Name: AUC(0-t) (µM·h)
A number alone suffices; assume µM·h.

Q: Please give the measured AUC(0-t) for this compound: Cn1cc(C[C@H](N)C(=O)O)c2ccccc21
A: 960
